system: FaDu cells; test: IC50 assay (inhibition of proliferation, 4 h exposure, SRB); type: cell-based; settings: Homo sapiens, 4 h, pHe 7.4, 4 h, oxic, read-out: Oxic IC50
Assign labels as follows, please: 1.0 for IC50 below 300 µM; 0.0 for IC50 equal to or exceeding 300 µM.

[[record]]
molecule = "[O-][n+]1nc(CCCN2CCOCC2)[n+]([O-])c2cc3c(cc21)CCC3 [Compound 2, SN30000, reference compound]"
target_under_test = "FaDu cells"
group = 1.0

[[record]]
molecule = "O=C(O)CCc1n[n+]([O-])c2ccccc2[n+]1[O-] [Compound 4a]"
target_under_test = "FaDu cells"
group = 0.0

[[record]]
molecule = "Cc1ccc2c(c1)[n+]([O-])nc(CCC(=O)O)[n+]2[O-] [Compound 5a]"
target_under_test = "FaDu cells"
group = 0.0

[[record]]
molecule = "CCOC(=O)CCCNc1n[n+]([O-])c2ccccc2[n+]1[O-] [Compound 11b]"
target_under_test = "FaDu cells"
group = 0.0

[[record]]
molecule = "Cc1ccc2c(c1)[n+]([O-])nc(NCCCC(=O)O)[n+]2[O-] [Compound 12a]"
target_under_test = "FaDu cells"
group = 0.0

[[record]]
molecule = "COC(=O)CCc1n[n+]([O-])c2ccccc2[n+]1[O-] [Compound 4b]"
target_under_test = "FaDu cells"
group = 1.0

[[record]]
molecule = "Cc1ccc2c(c1)[n+]([O-])c(CCC(=O)O)n[n+]2[O-] [Compound 6a]"
target_under_test = "FaDu cells"
group = 0.0

